# Experimental System: T1, SLK peptide complexed with HLA-A*02:01 on T2 cells (human)
# T1 construct: whole, on cells
# Experiment: flow cytometry, peptide-loaded T2 cells;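 further: binding of single-chain Fv antibody constructs, raised in XenoMouse, to peptide-pulsed T2 cells measured by flow cytometry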
Measure: Signal/background

[[record]]
binder = "18182-E10 (scFv, scFv in bacterial lysate, detected with anti-Flag M2) scFv: EVQLLESGGGLVQPGGSLRLSCAASGFTFSSHAMSWVRQAPGQGLEWVSSISGSGGGTYYAASVKGRFTISRDNSKNTLYLQMNSLRAEDTAVYYCATGKGVHLNFDYWGQGTLVTVSSGGGGSGGGGSGGGGSELALTQPASASVAPGQTARITCGGNNIGSKSVHWHQQKPGQAPVLVVYDDNDRPSGIPERFSGSNSGNTATLTISRVEAGDEADFYCQVWDSSSDHVVFGGGTKLTVL"
observed_value = 1

[[record]]
binder = "18181-B8 (scFv, scFv in bacterial lysate, detected with anti-Flag M2) scFv: EVQLLESGPGLVKPSQTLSLTCTVSGGSISSGGYYWSWIRQHPGKGLEWIGYISHSGSTYYNPSLKSRVTISVDTSKNQFSLNLTSVTAADTAVYYCAREKMWFGVLNYYYGMDVWGQGTTVTVSSGGGGSGGGGSGGGGSELVMTQTPLSLPVTPGEPASISCRSSQSLLHRNGYNYLDWYLQKPGQSPQLLIYLGSNRASGVPDRFIGSGSGTDFTLEISRVEAEDVGVYYCMQALQTPSFGQGTKVEIK"
observed_value = 1

[[record]]
binder = "18182-B12 (scFv, scFv in bacterial lysate, detected with anti-Flag M2) scFv: EVQLLESGGGLVQPGGSLRLSCAASGFTFSSYAMSWVRQAPGKGLEWVSAISGSGGGTYYADSVKGRFTISRDNSKNTLYLQMSSLRAEDTAVYYCATGKGVHLGFDYWGQGTLVTVSSGGGGSGGGGSGGGGSELVLTQPPSVSVAPGQTARITCGGNNIGSKSVHWHQQKPGQAPVLVVYDDNDRPSGIPERFSGSNSGNTATLTISRVEAGDEADYYCQVWDYSSDHVVFGGGTKLTVL"
observed_value = 0.9

